Measured MIC accompanies every entry in the list below.
- Test system: Staphylococcus aureus 43300(MRSA)
- Protocol description: microbe, parasite or virus in culture
- Format: cell-based
- Assay setup: Staphylococcus aureus, MRSA, 24 h, read-out: MIC values of in vitro antibacterial test results

Smiles notation	Target system	MIC
Cc1nn2c([O-])cc(-c3ccc([N+](=O)[O-])cc3)nc2c1-c1ccc(F)cc1F.[K+]	Staphylococcus aureus 43300(MRSA)	< 100 µg/mL
CC(=O)Oc1ccc(-c2cc([O-])n3nc(C)c(-c4ccc(F)cc4F)c3n2)cn1.[Na+]	Staphylococcus aureus 43300(MRSA)	< 100 µg/mL
Cc1nn2c([O-])cc(-c3ccc(N(C)C)cc3)nc2c1-c1ccc(F)cc1F.[K+]	Staphylococcus aureus 43300(MRSA)	< 150 µg/mL
COc1ccc(-c2cc([O-])n3nc(C)c(-c4ccc(F)cc4F)c3n2)cc1.[Na+]	Staphylococcus aureus 43300(MRSA)	< 100 µg/mL
Cc1nn2c([O-])cc(-c3ccc(S(N)(=O)=O)nc3)nc2c1-c1ccc(F)cc1F.[Na+]	Staphylococcus aureus 43300(MRSA)	< 100 µg/mL
Cc1nn2c([O-])cc(-c3ccc(Oc4ccccc4)cc3)nc2c1-c1ccc(F)cc1F.[Na+]	Staphylococcus aureus 43300(MRSA)	< 150 µg/mL
Cc1nn2c([O-])cc(-c3ccc(C(N)=O)cc3)nc2c1-c1ccc(F)cc1F.[Na+]	Staphylococcus aureus 43300(MRSA)	< 100 µg/mL
Cc1nn2c([O-])cc(-c3ccc(S(N)(=O)=O)cc3)nc2c1-c1ccc(F)cc1F.[Na+]	Staphylococcus aureus 43300(MRSA)	< 100 µg/mL
Cc1nn2c([O-])cc(-c3ccc(N(C)C)cc3)nc2c1-c1ccc(F)cc1F.[Na+]	Staphylococcus aureus 43300(MRSA)	< 150 µg/mL
Cc1nn2c([O-])cc(-c3ccc(N(C)C)nc3)nc2c1-c1ccc(F)cc1F.[Na+]	Staphylococcus aureus 43300(MRSA)	< 100 µg/mL
Cc1nn2c([O-])cc(-c3ccc(S(=O)[O-])cc3)nc2c1-c1ccc(F)cc1F.[Na+].[Na+]	Staphylococcus aureus 43300(MRSA)	< 150 µg/mL
Cc1nn2c([O-])cc(-c3ccc(C(=O)[O-])cc3)nc2c1-c1ccc(F)cc1F.[Na+].[Na+]	Staphylococcus aureus 43300(MRSA)	< 100 µg/mL
Cc1nn2c([O-])cc(-c3ccc(C(N)=O)nc3)nc2c1-c1ccc(F)cc1F.[Na+]	Staphylococcus aureus 43300(MRSA)	< 100 µg/mL
CC(=O)Oc1ccc(-c2cc([O-])n3nc(C)c(-c4ccc(F)cc4F)c3n2)cc1.[Na+]	Staphylococcus aureus 43300(MRSA)	< 100 µg/mL
Cc1nn2c([O-])cc(-c3ccc(C(F)(F)F)nc3)nc2c1-c1ccc(F)cc1F.[K+]	Staphylococcus aureus 43300(MRSA)	< 100 µg/mL
Cc1nn2c([O-])cc(-c3ccc(C(F)(F)F)nc3)nc2c1-c1ccc(F)cc1F.[Na+]	Staphylococcus aureus 43300(MRSA)	< 150 µg/mL
